Ref: patent US20250152746A1

# Tested on: PCSK9 gene
# ASSAY_TEXT: PCSK9 gRNA/SpCas9 editing in primary human hepatocytes (Tables 2, 4)
# Type: cell-based
# CONDITION_LABEL: 100 ng/RNA/mL; SpCas9 mRNA MS002 1:1 by weight
In the oligonucleotide strings, read from the 5' end, every base follows the letter of its sugar. An asterisk marks phosphorothioate; unmarked linkages are phosphodiester. Other units and linkages are bracketed, terminal groups are in braces. A string of capitals states the bases alone. m = 2'-O-methyl; r = 2'-OH (RNA)
ENDPOINT_NAME: Human Primary Hepatocyte Editing % 100 (%)
# output: bare number, implied unit %

1. GA239: PCSK9 gRNA; protospacer CCGCCTGCCAGCGCCTGGCG (SEQ ID NO: 232) (nucleic acid, sugars from the 5' end m3 r94 m3, linkages s3 o93 s3 (s phosphorothioate, o phosphodiester), T or U not given here) guide: CCGCCUGCCAGCGCCUGGCGGUUUUAGAGCUAGAAAUAGCAAGUUAAAAUAAGGCUAGUCCGUUAUCAACUUGAAAAAGUGGCACCGAGUCGGUGCUUUU	0.06

Next:
Measured Human Primary Hepatocyte Editing % 100, GA188: PCSK9 gRNA; protospacer TATTCATCCGCCCGGTACCG (SEQ ID NO: 182) (nucleic acid) guide: mU*mA*mU*rUrCrArUrCrCrGrCrCrCrGrGrUrArCrCrGrGrUrUrUrUrArGrArGrCrUrArGrArArArUrArGrCrArArGrUrUrArArArArUrArArGrGrCrUrArGrUrCrCrGrUrUrArUrCrArArCrUrUrGrArArArArArGrUrGrGrCrArCrCrGrArGrUrCrGrGrUrGrCrU*mU*mU*mU : 4.21
